Reported IC50 values are given for each entry in this list.
Target: Plasmepsin II (Plasmodium falciparum, UniProt P46925)
Sequence (P46925 whole entry): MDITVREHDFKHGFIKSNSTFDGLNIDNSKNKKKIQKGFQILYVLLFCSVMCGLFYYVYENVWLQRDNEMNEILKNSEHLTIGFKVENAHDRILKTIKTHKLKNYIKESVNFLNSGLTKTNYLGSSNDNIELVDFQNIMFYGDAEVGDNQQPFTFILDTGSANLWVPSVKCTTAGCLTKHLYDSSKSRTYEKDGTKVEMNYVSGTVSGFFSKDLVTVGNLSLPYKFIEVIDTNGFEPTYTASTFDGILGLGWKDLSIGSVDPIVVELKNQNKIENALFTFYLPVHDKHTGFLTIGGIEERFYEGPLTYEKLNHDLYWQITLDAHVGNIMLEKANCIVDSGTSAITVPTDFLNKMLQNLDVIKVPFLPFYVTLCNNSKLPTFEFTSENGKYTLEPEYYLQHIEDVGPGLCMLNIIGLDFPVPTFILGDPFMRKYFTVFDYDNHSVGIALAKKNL
Test Protocol: Inhibition of Plasmodium falciparum plasmepsin 2 using fluorescently labeled peptide substrate by fluorescence method
Experimental Readout: IC50 (nM)

>  <Molecule>
CCCCCCc1ccc(S(=O)(=O)C2C3CCC(N3)C2NCc2ccc3ccccc3c2)cc1 (stereo not drawn)

>  <Experimental Readout>
IC50

>  <Numeric Value>
130

$$$$
>  <Molecule>
CCCCCCCCCCc1ccc(S(=O)(=O)C2C3CCC(N3)C2NCc2ccc3ccccc3c2)cc1 (stereo not drawn)

>  <Experimental Readout>
IC50

>  <Numeric Value>
350

$$$$
>  <Molecule>
O=S(=O)(c1ccc(CCCCC2CCCCC2)cc1)C1C2CCC(N2)C1NCc1ccc2ccccc2c1 (stereo not drawn)

>  <Experimental Readout>
IC50

>  <Numeric Value>
380

$$$$
